Values from ChEMBL document CHEMBL5579899

- RUN_DESCRIPTION: Metabolic stability in dog liver microsomes assessed as intrinsic clearance
- Assay type: ADME, Canis lupus familiaris, Microsome
- CONDITION: read-out: CLH
QUANTITY_MEASURED: microsomal CLint (µL/min/mg)
Only the number, expressed in µL/min/mg, is required.

input: Look up microsomal CLint for this molecule: `COC[C@H](c1cnn2cc([C@@H](NC(=O)/C(F)=C\C3CC3)C3CCC(F)(F)CC3)nc2c1)N1C[C@@H](C(F)(F)F)NC1=O`
output: 18

====

- RUN_DESCRIPTION: AUC in Sprague-Dawley rat at 3 mg/kg,po measured upto 24 hrs by LC-MS/MS analysis
- Assay type: ADME, organism-based
- CONDITION: Sprague-Dawley, in vivo
# AUC at 24 h per record follows
Dear colleague, please send the value followed by its unit.

COC[C@H](c1cnn2cc([C@@H](NC(=O)/C(F)=C3\CCOC3)C3CCC(F)(F)CC3)nc2c1)N1C[C@@H](C(F)(F)F)NC1=O
0.08 µM·h

input: Given the compound `COC[C@H](c1cnn2cc([C@@H](NC(=O)c3nonc3C)C3CCC(F)(F)CC3)nc2c1)N1C[C@@H](C(F)(F)F)NC1=O` , what is its reported AUC at 24 h?
output: 5.43 µM·h

input: For `COC[C@H](c1cnn2cc([C@@H](Nc3nnc(C4CC4)o3)C3CCC(F)(F)CC3)nc2c1)N1C[C@@H](C(F)(F)F)NC1=O` , what is its reported AUC at 24 h?
output: 0.026 µM·h

input: What value of AUC at 24 h has been reported for the following compound? `CC(F)(F)c1nnc(N[C@H](c2cn3ncc([C@@H](C4CC4)N4C[C@@H](C(F)(F)F)NC4=O)cc3n2)C2CCC(F)(F)CC2)o1`
output: 0.569 µM·h
